Listing of recorded IC50 by entry.
System: H9 (acute lymphoblastic leukemia) cells
assayMethodText: MTT cell growth inhibition, leukemia cells
Assay type: cell-based, human
conditionInfo: Homo sapiens; H9, 72 h, MTT; read-out: IC50
The reply should be a number in µg/mL, with the unit left off.

molecule: COc1ccc2cc1Oc1ccc(cc1)C[C@H]1c3cc(c(OC)cc3CCN1C)Oc1c(OCc3cccc(F)c3F)c(OC)cc3c1[C@H](C2)N(C)CC3
IC50 / µg/mL: 2.2
//
molecule: COc1ccc2cc1Oc1ccc(cc1)C[C@H]1c3cc(c(OC)cc3CCN1C)Oc1c(OS(=O)(=O)c3ccccc3)c(OC)cc3c1[C@H](C2)N(C)CC3
IC50 / µg/mL: 1
//
molecule: COc1ccc2cc1Oc1ccc(cc1)C[C@H]1c3cc(c(OC)cc3CCN1C)Oc1c(OCC(O)CNCC3CC3)c(OC)cc3c1[C@H](C2)N(C)CC3 (stereo partly drawn)
IC50 / µg/mL: 1.45

If you can, please state the reported IC50 value of "COc1ccc2cc1Oc1ccc(cc1)C[C@H]1c3cc(c(OC)cc3CCN1C)Oc1c(OS(=O)(=O)c3ccc(C)cc3)c(OC)cc3c1[C@H](C2)N(C)CC3" .
2.4

Item under review: "COc1ccc2cc1Oc1ccc(cc1)C[C@H]1c3cc(c(OC)cc3CCN1C)Oc1c(OCc3ccc(C(F)(F)F)cc3)c(OC)cc3c1[C@H](C2)N(C)CC3" . Reported IC50?
1.8

Which measured IC50 value corresponds to "C=C(C)COc1c(OC)cc2c3c1Oc1cc4c(cc1OC)CCN(C)[C@H]4Cc1ccc(cc1)Oc1cc(ccc1OC)C[C@@H]3N(C)CC2" ?
1.96

Hey, just so you know, these numbers are from patent US9328122B2.
